- Protocol Text: Determination of thermodynamic solubility in phosphate buffer
- Assay type: physicochemical
- Setup Conditions: pH 7.4, aqueous buffer, thermodynamic from solid, ammonium phosphate buffer pH7.4, 290 mOsm, 37° C., nominal 1 mg/mL, read-out: Solubility in PO4 buffer
- Procedure: Determination of Thermodynamic Solubility in Phosphate Buffer The thermodynamic solubility of compound was determined in Ammonium Phosphate Buffer (pH7.4, 290 mOsm). Compounds were made up at a nominal concentration of 1 mg/mL, vortexed then placed on a shaker for 1 h, 37° C. at approximately 950 rpm. […] The concentration of compound in the supernatant was determined by LC-MS/MS analysis using a calibration line prepared from a DMSO stock.
Quantity Measured: log10(solubility at 1 h) (log10 of the value in µg/mL)

CCOc1ccc(C[C@@H](NC(=O)C2CCCCC2)C(=O)N[C@@H](Cc2ccccc2)C(=O)NCc2ccc(CN)cc2)cc1 [Example 75] :: 0.03
CCOc1ccc(C[C@@H](NC(=O)c2ccc(OC)cc2)C(=O)N[C@@H](Cc2ccccc2)C(=O)NCc2ccc(CN)cc2)cc1 [Example 95] :: 0.31
CCOc1ccc(C[C@@H](NC(=O)c2ccncc2)C(=O)N[C@@H](Cc2ccccc2)C(=O)NCc2ccc(CN)cc2)cc1 [Example 71] :: 1.34
CCOc1ccc(C[C@@H](NC(=O)c2cccnc2)C(=O)N[C@@H](Cc2ccccc2)C(=O)NCc2ccc(CN)cc2)cc1 [Example 70] :: 1.06
CCOc1ccc(C[C@@H](NC(=O)c2ccncc2)C(=O)N[C@@H](Cc2csc3ccccc23)C(=O)NCc2ccc(CN)cc2)cc1 [Example 178] :: 0.19
CCOc1ccc(C[C@@H](NC(=O)c2cccs2)C(=O)N[C@@H](Cc2ccccc2)C(=O)NCc2ccc(CN)cc2)cc1 [Example 73] :: 0.71
CCOc1ccc(C[C@@H](NC(=O)c2cccs2)C(=O)N[C@@H](Cc2cccnc2)C(=O)NCc2ccc(CN)cc2)cc1 [Example 162] :: 1.84
CCOc1ccc(C[C@@H](NC(=O)c2ccc(OC)cc2)C(=O)N[C@@H](Cc2ccccn2)C(=O)NCc2ccc(CN)cc2)cc1 [Example 158] :: 1.85
CCOc1ccc(C[C@@H](NC(=O)c2ccsc2)C(=O)N[C@@H](Cc2ccccc2)C(=O)NCc2ccc(CN)cc2)cc1 [Example 72] :: 0.84
CCOc1ccc(C[C@@H](NC(=O)c2sccc2C)C(=O)N[C@@H](Cc2cccnc2)C(=O)NCc2ccc(CN)cc2)cc1 [Example 181] :: 1.79
CCOc1ccc(C[C@@H](NC(=O)c2ccc(Cl)cc2Cl)C(=O)N[C@@H](Cc2ccccc2)C(=O)NCc2ccc(CN)cc2)cc1 [Example 58] :: 0.61
CCOc1ccc(C[C@@H](NC(=O)c2ccc(Cl)cc2)C(=O)N[C@@H](Cc2ccccc2)C(=O)NCc2ccc(CN)cc2)cc1 [Example 55] :: 0.18
CCOc1ccc(C[C@@H](NC(=O)c2ccc(C)cc2)C(=O)N[C@@H](Cc2ccccc2)C(=O)NCc2ccc(CN)cc2)cc1 [Example 92] :: -0.70

----------
- Target Or System: Human plasma kallikrein (Homo sapiens (Human))
- Protocol Text: Determination of the IC50 for plasma kallikrein
- Type: biochemical
- Setup Conditions: 37° C., substrate H-DPro-Phe-Arg-AFC, read-out: IC50 (human PKal)
pIC50: −log10 of the molar value.
pIC50 of 7 or higher: condition met. Under 7: condition not met.

CCOc1ccc(C[C@@H](NC(=O)C2CC2)C(=O)N[C@@H](Cc2ccccc2)C(=O)NCc2ccc(CN)cc2)cc1 [Example 74] :: condition not met
CCOc1ccc(C[C@@H](NC(=O)c2cccc(C(F)(F)F)c2)C(=O)N[C@@H](Cc2ccccc2)C(=O)NCc2ccc(CN)cc2)cc1 [Example 90] :: condition not met
CCOc1ccc(C[C@@H](NC(=O)c2ccnc(OC)c2)C(=O)N[C@@H](Cc2ccccc2)C(=O)NCc2ccc(CN)cc2)cc1 [Example 123] :: condition not met
CCOc1ccc(C[C@@H](NC(=O)c2ccno2)C(=O)N[C@@H](Cc2cccnc2)C(=O)NCc2ccc(CN)cc2)cc1 [Example 174] :: condition met
NCc1ccc(CNC(=O)[C@H](Cc2ccccc2)NC(=O)[C@@H](Cc2ccccc2)NC(=O)c2ccccc2)cc1 [Example 139] :: condition not met
CCOc1ccc(C[C@@H](NC(=O)c2[nH]ccc2C)C(=O)N[C@@H](Cc2ccccc2)C(=O)NCc2ccc(CN)cc2)cc1 [Example 124] :: condition met
CCOc1ccc(C[C@@H](NC(=O)c2cccc(OC)n2)C(=O)N[C@@H](Cc2ccccc2)C(=O)NCc2ccc(CN)cc2)cc1 [Example 120] :: condition not met
CCOc1ccc(C[C@@H](NC(=O)c2sc(C)nc2C)C(=O)N[C@@H](Cc2ccccc2)C(=O)NCc2ccc(CN)cc2)cc1 [Example 111] :: condition met
CCOc1ccc(C[C@@H](NC(=O)CNS(=O)(=O)c2ccc(C)cc2)C(=O)N[C@@H](Cc2ccccc2)C(=O)NCc2ccc(CN)cc2)cc1 [Example 101] :: condition not met
CCOc1ccc(C[C@@H](NC(=O)c2sccc2NC(C)=O)C(=O)N[C@@H](Cc2csc3ccccc23)C(=O)NCc2ccc(CN)cc2)cc1 [Example 188] :: condition met
NCc1ccc(CNC(=O)[C@H](Cc2ccccc2)NC(=O)[C@@H](Cc2ccc(Cl)cc2)NC(=O)c2ccccc2)cc1 [Example 127] :: condition not met
CCOc1ccc(C[C@@H](NC(=O)c2ccc(C)cc2)C(=O)N[C@@H](Cc2cscn2)C(=O)NCc2ccc(CN)cc2)cc1 [Example 185] :: condition met

----------
- Target Or System: Human plasma kallikrein (Homo sapiens (Human), UniProt P03952)
- Sequence (P03952 391-638): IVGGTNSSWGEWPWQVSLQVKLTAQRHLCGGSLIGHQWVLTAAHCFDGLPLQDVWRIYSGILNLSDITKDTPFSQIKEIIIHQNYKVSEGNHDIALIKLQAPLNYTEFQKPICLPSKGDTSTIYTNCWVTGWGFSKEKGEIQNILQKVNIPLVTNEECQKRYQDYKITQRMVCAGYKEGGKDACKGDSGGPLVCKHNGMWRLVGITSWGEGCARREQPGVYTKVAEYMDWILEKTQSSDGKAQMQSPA
- Sequence (P03952 20-390 partner): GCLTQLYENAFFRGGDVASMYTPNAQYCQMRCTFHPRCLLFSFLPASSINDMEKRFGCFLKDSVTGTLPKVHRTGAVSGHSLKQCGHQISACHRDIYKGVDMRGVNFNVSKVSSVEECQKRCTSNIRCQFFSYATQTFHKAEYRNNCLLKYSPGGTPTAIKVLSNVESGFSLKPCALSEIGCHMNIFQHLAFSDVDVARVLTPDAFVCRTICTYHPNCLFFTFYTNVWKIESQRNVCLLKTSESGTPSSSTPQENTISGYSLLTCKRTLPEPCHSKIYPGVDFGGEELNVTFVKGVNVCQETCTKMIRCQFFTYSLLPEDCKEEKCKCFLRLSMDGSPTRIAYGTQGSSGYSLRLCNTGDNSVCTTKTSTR
- Protocol Text: Determination of the IC50 for plasma kallikrein
- Type: biochemical
- Setup Conditions: fluorogenic substrate H-DPro-Phe-Arg-AFC, 37° C., read-out: IC50 (human PKal)
pIC50: −log10 of the molar value.
pIC50 of 6 or higher: TRUE. Under 6: FALSE.

CCOc1ccc(C[C@@H](N)C(=O)N(C)[C@@H](Cc2ccccc2)C(=O)NCc2ccc(CN)cc2)cc1 :: TRUE
CCOc1ccc(C[C@@H](NC(=O)CC)C(=O)N(CC)[C@@H](Cc2ccccc2)C(=O)NCc2ccc(CN)cc2)cc1 :: FALSE
CCC(=O)N[C@H](CC1CCCCC1)C(=O)N[C@@H](Cc1ccccc1)C(=O)NCc1ccc(CN)cc1 :: FALSE
CC(C)C[C@@H](NCC(=O)O)C(=O)N[C@@H](Cc1ccccc1)C(=O)NCc1ccc(CN)cc1 :: FALSE
CCOc1ccc(C[C@@H](NC(=O)CC)C(=O)N[C@@H](Cc2ccccc2)C(=O)NCc2ccc(CN)cc2Cl)cc1 :: TRUE
CCC(=O)N[C@H](Cc1ccc(C(F)(F)F)cc1)C(=O)N[C@@H](Cc1ccc(Cl)c(Cl)c1)C(=O)NCc1ccc(CN)cc1 :: FALSE
CN[C@H](CC1CCCCC1)C(=O)N[C@@H](Cc1ccccc1)C(=O)NCc1ccc(CN)c(F)c1 :: FALSE
CN(CC(=O)O)[C@H](CC1CCCCC1)C(=O)N[C@@H](Cc1ccccc1)C(=O)NCc1ccc(CN)c(F)c1 :: TRUE
CCOc1ccc(C[C@@H](NC(=O)CC)C(=O)N(C)[C@@H](Cc2ccccc2)C(=O)NCc2ccc(CN)c(F)c2)cc1 :: TRUE
CCOc1ccc(C[C@@H](NC(=O)c2ccc(Cl)cc2)C(=O)N[C@@H](Cc2ccccc2)C(=O)NCc2ccc(CN)cc2)cc1 :: TRUE
CN(CC(N)=O)[C@H](CC1CCCCC1)C(=O)N[C@@H](Cc1ccccc1)C(=O)NCc1ccc(CN)cc1 :: FALSE
CCOc1ccc(C[C@@H](NC(=O)c2ccc(-c3ccccc3)cc2)C(=O)N[C@@H](Cc2ccccc2)C(=O)NCc2ccc(CN)cc2)cc1 :: FALSE
CCOc1ccc(C[C@@H](NC(=O)CC)C(=O)N(C)[C@@H](Cc2ccccc2)C(=O)NCc2ccc(CN)cc2)cc1 :: TRUE
CN(C(=O)[C@@H](CC1CCCCC1)NCC(=O)O)[C@@H](Cc1ccccc1)C(=O)NCc1ccc(CN)cc1 :: TRUE
CCOc1ccc(C[C@@H](NC(=O)c2ccc(C(F)(F)F)cc2)C(=O)N[C@@H](Cc2ccccc2)C(=O)NCc2ccc(CN)cc2)cc1 :: TRUE
CCC(=O)N[C@H](CC1CCCCC1)C(=O)N[C@@H](Cc1ccc(Cl)c(Cl)c1)C(=O)NCc1ccc(CN)cc1 :: FALSE
CCOc1ccc(C[C@@H](NS(=O)(=O)c2ccccc2)C(=O)N[C@@H](Cc2ccccc2)C(=O)NCc2ccc(CN)cc2)cc1 :: TRUE
CCOc1ccc(C[C@@H](N)C(=O)N[C@@H](C(=O)NCc2ccc(CN)cc2)[C@@H](O)c2ccccc2)cc1 :: FALSE
CCOc1ccc(C[C@H](C(=O)N[C@@H](Cc2ccccc2)C(=O)NCc2ccc(CN)cc2)N(C)C(=O)CC)cc1 :: FALSE
CCCN[C@H](Cc1ccc(OCC)cc1)C(=O)N(C)[C@@H](Cc1ccccc1)C(=O)NCc1ccc(CN)cc1 :: FALSE
CCOc1ccc(C[C@@H](NCC(=O)O)C(=O)N[C@@H](Cc2ccccc2)C(=O)NCc2ccc(CN)cc2)cc1 :: FALSE
CCOc1ccc(C[C@@H](NC(=O)CC)C(=O)N[C@@H](C(=O)NCc2ccc(CN)cc2)[C@@H](O)c2ccccc2)cc1 :: FALSE

Where these numbers come from: patent US9234000B2
